# PROCEDURE DETAILS: soluble fraction after stress (log2 fold change); higher = more stays soluble; pooled small domains, quantitative proteomics
# PARTICULARS: stress: pH 4
soluble fraction (log2) below -1 gives False; soluble fraction (log2) at or above it gives True.

SEQUENCE CODE	LABEL CLASS
HMINGTITFYDDTTLKGELSSLDTKYLFIIPNGLVMPEKIAVSDIEYFNLDNGITLIQDGISKQTY	False
HMADFIGMNATVTERIFPQGFGRISFVYEGNSISEPARSEDGKEIPTGTSVVVLEVRDKVYIVQPL	True
HMDSIDIDAETKSLGPNAPQIIKGIKEWGQGLVAKGVWSDQDFEEFKVFAATANGINALNKVRKFY	True
HMRQQQISAAIKTSVNGTVDYYVRRLPERDPRGDFLEVWDDLQKVIQAAHGIQVSHDELYEYFRRLK	False
HMSAGKKSFTNSEFRRFLDALGEGLIVKHKKLGEGVVVEIRGDKAVIQFGDEQRLYELKTLYEYDLLR	True
HMGLLVPELTAEENVSLAAMIAGVPRQQARSISADLLNRLGLGQMLDRRMGEMSGGQAQRVAIAPIYGKF	True
HMAERVWASLLEIKNAVAIEDAKTLEDVDNSEKIAEERIAALNDDAKHPLAIAFIGKLRQDIAEKKIELA	False
HMKSSISKNWNPSKDAIEILTRAGIDQEFLENLIPEFVIYWIERSDVLISYNSKFIEHARLKWAQHTAEIQ	True

---

# PROCEDURE DETAILS: soluble fraction after stress (log2 fold change); higher = more stays soluble; pooled small domains, quantitative proteomics
# PARTICULARS: stress: pH 4
soluble fraction (log2) below -0.3 gives Criterion not met; soluble fraction (log2) at or above it gives Criterion met.

SEQUENCE CODE	LABEL CLASS
HMLDQAVPVFETPKYAVSYIQNRLVEMKAASPEEAASRFYESISESERRGLFEALLIKEAEES	Criterion not met
HMADLPQATALADVKGDVQMQGIQFGYDPEKIIIHDLNLHARPGSLVAIVGPTGAGKTTIINLLMRFYD	Criterion met
HMSALTELPVKTVNGKKYHYYVVKQHETVYALSKRFGITPEQLIKYNPSAEDGLQIDQELLFPATEI	Criterion met
HMSKPVYILINKPKGFLASSTDKKVKKSVNDLINISNLNKIYPFDNMGRTSSGLLLLSNDLYFKKHFKDKI	Criterion met
HMHINLEGLKKIDFRKKIGFLFGSEASGLSNKEVSYANYTLQIPTNINFKSLNLSHSLIIIAQFISSLLNS	Criterion met
HMKTERTVRVQDQHLHYTLEEKPIKNVNLRIRPDGSVYVSAPFGTSRTLIDDFVASKSKQILAIQQAQSAM	Criterion met
HMEREQPFAVTEAYRGMRLDRFLQAMLPRMSRAAIQDAIDNRVRLGSGRAAKASLRPAIGDTVFFGQRI	Criterion met
HMLGWEDVIQFEEVKGYGQHIWRDGNHLYYVTEEGGIAPQRVVYELPNELFALLESGERTQLEILSKLQ	Criterion not met
HMLDLSEEEQKIVSILEKQGNLQINSLVVEADIPVHKINAILFELEMKGVVRVLALSLIHISEP	Criterion not met
HMVQMKIRAYELEPNDFFIKQNMTYRVMRIQNGMIYAKHLLNSTPITFGAKSMEFVLWTGKYS	Criterion not met
HMFEDYLRMKGLSIVSFSKQTGIPISTLRNLNKIRYDKWKIRYLEELSNVLNKTIQEIIEELKNMG	Criterion not met
HMSTLSIHIPDKFAGQRLDQALAELYSQFSRSRLQQWLNDGELLVDGKSVKANKKVLGGEFIQILK	Criterion met
HMDKSHYEELGVSRTATHAEIRRAYRHLMRTLHPDSNDGRVDAVRITKVNEAWNVLSQSSSRNAYDKSQV	Criterion met
HMGQAEEVRYSTFLDEVRNGRIEQVVLQGEHIIGTRKDKTVFSVFNPETDYTALIGTLSKSGVTIEGRP	Criterion met
HMTRKQTIYEFLRRMKSQHGLDAVYSTEEIANAVGVSRANVSSDLNRLFEEQLVEKLPGWPVKYRA	Criterion met
HMSVFGMEIGKTTEAEAGRMYRLNKEQLNPYSGGYQYSVNPKAIDFSGLEQVTLIFDEKKVLVYVQAV	Criterion met
HMVRSKLEIVPVPEDAVVKIAGLKRLTYQAYQNEDVPYMVYKNGYEAQSGTVFMDTDKTLTVTLEESP	Criterion met
HMEFQEQLYRLRKQAGLSQEELSHIIGVSRQAVQKWEAGSARPDLDNLIALASHFKLSLDQLVGLT	Criterion met
HMELQYSQEIEEAQKILENLGLYRGEIDGINGINTKSAIREFQRKSGLVVDGILGPNTTNALSKGSDAYIT	Criterion met
HMLVPWKSANLFKLVEPNFRLAERKIPMLPSADREKLQEIMSDMKDAIVDNDKMALMKLDEELTDFLFDFV	Criterion not met
HMGQVAKPPLKELGADPVTGKPMVLKDGRFGPYVTDGEYNASLRKDDDIETIGVERAAELLQIRREKGP	Criterion met
HMNADSLIGENIRISERVSNMDQTGMAVVHGQEWTVRTRNDNEIIEPGEEAKILAISGVKLIVEK	Criterion met
HMVSVEINTVERDETFRKMFTSGWKPENRIQALAVEQAKKNGLGRMSEVAGLASFRGIWKQATEQVALEA	Criterion met
HMIVNEQEQTFIKAMRDDDFNTILELKMKGYQPSDNVLKSLQPDISSTTFIAAAKIFQMERMLK	Criterion met
HMRTIPDALIGRPYESVETAIVLEGLQAKRTEVFHPTIRPGTVIRLEPTSGSELLRDGVVEIFVSQGPETT	Criterion not met
HMNVSVSITKELQVYINDERISSSALESTLKSKLAGIENPTIILRAEEGVPIEKAVNVMDIANRNRYKIVL	Criterion not met
HMISTVFYVDVKGEVHHPGVYQMKAENRVKDLIEAAGGFTPLADDQKLNLAQLLEDQMVIVVPKKGEEV	Criterion met
HMNILDPTVMKNILDKNHEEFIAIYESAPLGQKTIINSMVFDKRLNGENVDANILMYLQNKTNIDYINIEP	Criterion not met
HMMESLGIRLKRLRKDKGLTQVELGKLSGVTGVTIGYWEKDLNEPGSKALSKLAQALGTTESYLLYGVS	Criterion met
HMDDYRIEDMMTVVEEQVIRQKETNLSWFFKRAGSLNEIITIFLAALELIKVHRVYVKQEHNFDDIILRKE	Criterion not met
HMNYIEWKNTFKKYLYLLPIKEEKETLAYFDEQYNKLNPKDLDNVENIFSDPIDKAAFVVAFYLEMEDEIK	Criterion not met
HMDDGALQIRLGPQALQQRLDKLGYSLNKEDLDLVYQYFLHSADSKGAVYDQELRELMGEAGVE	Criterion not met
HMGEKTVPNVIGQKLATAKQLLEKEGLTVGSTSYNKNQADKDTVLSTDPAPGSHLSEGAKVNLTLSSGA	Criterion met
